- MEASURED_TARGET: T1, human CAPRIN-1 protein on the cell surfaces of human cancer cell lines and in human cancer tissues (human, UniProt Q14444 2-709)
- T1 sequence (looked up): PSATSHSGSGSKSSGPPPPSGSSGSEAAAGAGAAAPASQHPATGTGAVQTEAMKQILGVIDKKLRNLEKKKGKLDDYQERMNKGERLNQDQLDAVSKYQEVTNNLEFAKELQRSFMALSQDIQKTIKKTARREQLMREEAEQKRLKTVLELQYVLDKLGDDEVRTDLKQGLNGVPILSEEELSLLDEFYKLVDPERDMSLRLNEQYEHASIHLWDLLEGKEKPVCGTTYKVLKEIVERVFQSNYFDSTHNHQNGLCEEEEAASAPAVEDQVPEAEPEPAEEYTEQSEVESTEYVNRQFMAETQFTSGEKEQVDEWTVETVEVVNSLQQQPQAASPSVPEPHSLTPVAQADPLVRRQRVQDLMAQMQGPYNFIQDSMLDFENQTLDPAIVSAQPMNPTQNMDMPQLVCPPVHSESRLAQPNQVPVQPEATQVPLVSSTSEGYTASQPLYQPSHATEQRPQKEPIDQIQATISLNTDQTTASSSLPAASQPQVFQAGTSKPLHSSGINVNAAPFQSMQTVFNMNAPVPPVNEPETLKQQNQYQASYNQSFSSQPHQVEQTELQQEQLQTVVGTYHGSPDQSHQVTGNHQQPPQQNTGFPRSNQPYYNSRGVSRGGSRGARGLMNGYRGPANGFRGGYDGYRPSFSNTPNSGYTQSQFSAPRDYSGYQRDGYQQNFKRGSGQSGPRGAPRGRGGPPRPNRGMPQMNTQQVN
- METHOD_SUMMARY: cell-based or functional assay
OBSERVED_PROPERTY: cytotoxic activity (ADCC) against T24

q: Data request, read-out cytotoxic activity (ADCC) against T24, for anti-CAPRIN-1 mouse monoclonal antibody #4 (antibody, V domains shown) VH: GAELVRSGASVKMSCKASGYSFTDYNMYWVKQTPGQGLEWIGYIYPGNGGTNYNQKFKGKATLTADTSSSTAYMQISSLTSEDSAVYFCARDYDDGGYAMDYWGQGTTVTVSS VL: DIQMTQSPASLSASVGETVTITCRASGNIHNYLTWYQQKQGKSPQLLVYNAKTLADGVPSRFSGSGSGTQYSLKINRLQPEDFGSYYCQHFWNIPWTFGGGTKLNSR
a: ≥ 18%

Reference source: patent US20120301476A1
